B1: CPEB3 Ribozyme (parent)
chain: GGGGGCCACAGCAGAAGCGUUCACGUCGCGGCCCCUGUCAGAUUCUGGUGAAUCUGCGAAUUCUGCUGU

- Variants of: B1
- test-details: self-cleavage, relative activity (ratio to wild type); higher = more cleavage; co-transcriptional
readout: self-cleavage
// keep it numeric: no unit symbol after the value

Would you please look over these solved cases?
- A8C U44A: 0.944
- C7A A52C: 0.412

Problem: Retrieve self-cleavage measured for G31C U61A and print it.
Result: 0.179

Problem: Retrieve self-cleavage measured for U64G U69C and print it.
Result: 1.05

Problem: Retrieve self-cleavage measured for G4C A8G and print it.
Result: 0.545
